# Target under test: Human DYRK1A (Homo sapiens, UniProt Q13627)
# Construct: purchased Invitrogen PV3997
# Assay explanation: DYRK1A Kinase TR-FRET (IMAP-Tb) Assay
# Type: biochemical
# Measurement conditions: % inhibition at 10 μM test compound concentration, where IC50 not determined; read-out: % inhibition DYRK1A (printed in the Enzyme IC50 DYRK1A column)
Reported inhibition at 10 µM values follow for various compounds
Observed property: inhibition at 10 µM

>>> experimental_result("COc1cc2[nH]c(=O)c(C(=O)Nc3cc(C(=O)NCc4ccccc4Cl)ccc3C)cc2cn1")
"45%"
>>> experimental_result("COC(=O)c1ccc(C)c(NC(=O)c2cc3cnc(OC)cc3[nH]c2=O)c1")
"24%"
>>> experimental_result("COc1cc2[nH]c(=O)c(C(=O)Nc3cc(C(=O)NCc4cccs4)ccc3Cl)cc2cn1")
"27%"
>>> experimental_result("COc1cc2[nH]c(=O)c(C(=O)Nc3cc(C(=O)NCc4cccc(Cl)c4)ccc3C)cc2cn1")
"45%"
>>> experimental_result("COc1cc2[nH]c(=O)c(C(=O)Nc3cc(C(=O)NCc4ccccc4)ccc3Cl)cc2cn1")
"23%"
